Listed below: Tm values for each entry.
test: melting temperature; fluorescence melt of hairpins on a sequencing array, two-state fit, raised by 9.35 °C to match UV melts; conditions: sodium 0.088 M

# RESIDUE_CODES, Tm, °C
records = [
    ("GATCAGTCACCTGATC ((((((....))))))", 49.6),
    ("GATCATGATCATGATC ((((((....))))))", 51.4),
    ("GGGAATGGAAACGTTCCC (((((.(....).)))))", 50.6),
]

====

test: folding enthalpy; higher = less favourable; fluorescence melt of hairpins on a sequencing array, two-state fit; conditions: sodium 0.088 M
Category key, based on recorded folding enthalpy: bin 1: < -30 kcal/mol; bin 2: ≥ -30 kcal/mol and < -20 kcal/mol; bin 3: ≥ -20 kcal/mol

# RESIDUE_CODES, CLASSIFICATION
rows = [
    ("GATCAACTGCTTGATC ((((((....))))))", "bin 1"),
    ("GCGGCACTCCGC ((((....))))", "bin 2"),
    ("GTCTAGCGAAAGCTGAC (((.(((....))))))", "bin 2"),
    ("GCGCTCGGAAACGAACGC (((.(((....))).)))", "bin 1"),
    ("GATCCAACCATGGATC ((((((....))))))", "bin 1"),
    ("GCTTCCGAAAGGACAGC ((((((....))).)))", "bin 2"),
    ("GGTGCCTCGAAAGAGACC (((..(((....))))))", "bin 3"),
    ("GCAGACGAAAGTCTCTGC ((((((....)))..)))", "bin 3"),
    ("CGGCAACGGAAACGTCCG (((..(((....))))))", "bin 3"),
    ("CGCATCGGAAACGAAGCG (((.(((....))).)))", "bin 1"),
    ("GCGAGGCGAAAGCCAGGC ((..(((....)))..))", "bin 3"),
    ("GCAGTGCGAAAGCATAGC ((..(((....)))..))", "bin 3"),
    ("GGCCAAACGAAAGTTGCC (((..(((....))))))", "bin 2"),
    ("GCTTACGAAAGTAGGAGC ((((((....)))..)))", "bin 2"),
    ("GCGTTACTACGC ((((....))))", "bin 2"),
    ("GATCGACGCCTCGATC ((((((....))))))", "bin 1"),
    ("GTCCCACGAAAGTGGAC (((.(((....))))))", "bin 3"),
    ("GAAGTCGGAAACGACTTC (((((((....)))))))", "bin 1"),
    ("GAGGATGGAAACATCCCC (.(((((....))))).)", "bin 3"),
    ("GTGGGGACGAAAGTCCAC (((..(((....))))))", "bin 3"),
    ("GTCAGTCGAAAGACGAC (((.(((....))))))", "bin 1"),
    ("GCAGTAGCGAAAGCTTGC (((..(((....))))))", "bin 3"),
    ("GGACCCGAAAGGGACTCC ((((((....)))..)))", "bin 3"),
    ("GATCGTCTCGACGATC ((((((....))))))", "bin 1"),
    ("GTTTCCGGAAACGGGAAC (((.(((....))).)))", "bin 2"),
    ("GGTCCCCGAAAGGGCACC (((.(((....))).)))", "bin 3"),
    ("GCTTCGCGAAAGCGGGGC ((..(((....)))..))", "bin 3"),
    ("GATCGAACCCTCGATC ((((((....))))))", "bin 1"),
    ("GGCGACGGAAACATCGCC (((((.(....).)))))", "bin 1"),
    ("GAGCACGAAAGTGGCCTC ((((((....)))..)))", "bin 3"),
    ("GCAATGGGAAACCATCGC ((.((((....)))).))", "bin 2"),
    ("GGGTGGCCGAAAGGCCCC (((..(((....))))))", "bin 3"),
    ("GTACGTCGAAAGACCTAC (((.(((....))).)))", "bin 3"),
    ("GGTACGGGAAACCATACC ((((.((....)).))))", "bin 2"),
    ("GGGTGCCCGAAAGGGCCC (((..(((....))))))", "bin 3"),
    ("GATTCGGGAAACCGGATC (((.(((....))).)))", "bin 1"),
    ("GGCTGTGCGAAAGCAGCC (((..(((....))))))", "bin 2"),
    ("GCCGTCGAAAGACCGGGC ((((((....)))..)))", "bin 2"),
    ("GAGAACGGAAACATTCTC (((((.(....).)))))", "bin 2"),
    ("GTTGGCGAAAGCCGTAAC ((((((....)))..)))", "bin 3"),
    ("GCGTTGGGAAACCGATGC ((.(.((....)).).))", "bin 2"),
    ("GCAGCAGGAAACTGCCAC (..((((....))))..)", "bin 3"),
]
